Target Desc: TRKC (Homo sapiens)
Construct: purchased Eurofins DiscoverX KINOMEscan (scanTK)
Sequence (Q16288 32-839): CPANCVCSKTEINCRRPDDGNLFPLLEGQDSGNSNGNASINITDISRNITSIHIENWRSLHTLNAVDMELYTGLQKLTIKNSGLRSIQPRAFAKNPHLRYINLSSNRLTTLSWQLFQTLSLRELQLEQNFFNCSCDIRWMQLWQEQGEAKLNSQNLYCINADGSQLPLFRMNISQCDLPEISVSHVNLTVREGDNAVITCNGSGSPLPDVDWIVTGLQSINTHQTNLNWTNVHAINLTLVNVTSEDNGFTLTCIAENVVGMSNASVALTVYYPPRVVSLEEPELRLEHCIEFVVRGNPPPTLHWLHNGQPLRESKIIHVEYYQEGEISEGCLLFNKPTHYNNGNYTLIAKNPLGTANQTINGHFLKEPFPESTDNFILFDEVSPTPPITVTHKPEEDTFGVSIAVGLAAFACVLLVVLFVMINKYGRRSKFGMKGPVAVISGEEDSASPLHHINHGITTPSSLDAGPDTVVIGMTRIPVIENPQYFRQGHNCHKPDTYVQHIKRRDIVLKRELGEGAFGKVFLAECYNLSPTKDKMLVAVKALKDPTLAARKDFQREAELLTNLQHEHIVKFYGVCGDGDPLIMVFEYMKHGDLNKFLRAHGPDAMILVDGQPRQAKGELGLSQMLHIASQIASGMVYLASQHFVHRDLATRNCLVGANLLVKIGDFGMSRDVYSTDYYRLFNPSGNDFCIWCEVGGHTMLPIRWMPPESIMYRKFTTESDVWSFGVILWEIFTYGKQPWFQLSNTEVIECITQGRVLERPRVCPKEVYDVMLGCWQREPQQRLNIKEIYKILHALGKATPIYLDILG
Assay Protocol: KINOMEscan ScanTK
Type: binding
Experimental Conditions: @1000nM; TRKC; read-out: %Control
Exercise: for every item that follows, state its recorded remaining binding at 1 µM.
The reply should contain only the number, in %.

Challenge: Please report the recorded remaining binding at 1 µM for CNC(=O)c1cnc(S(C)(=O)=O)nc1N1CCCC(n2nc(-c3ccc(Oc4ccccc4)cc3)c3c(N)ncnc32)C1 (stereo not shown) [Compound 8d] .
Response given: 92

Challenge: Please report the recorded remaining binding at 1 µM for Cc1cnc(S(C)(=O)=O)nc1N1CCCC(n2nc(-c3ccc(Oc4ccccc4)cc3)c3c(N)ncnc32)C1 (stereo not shown) [Compound 8a] .
Response given: 78

Challenge: Please report the recorded remaining binding at 1 µM for COC(=O)c1cnc(S(C)(=O)=O)nc1N1CCCC(n2nc(-c3ccc(Oc4ccccc4)cc3)c3c(N)ncnc32)C1 (stereo not shown) [Compound 8b] .
Response given: 78

Challenge: Please report the recorded remaining binding at 1 µM for CCOC(=O)c1cnc(S(C)(=O)=O)nc1N1CCC[C@@H](n2nc(-c3ccc(Oc4ccccc4)cc3)c3c(N)ncnc32)C1 [Compound 8c] .
Response given: 77
